# target entity: human IgE; monoclonal antibody SE44 (human) (UniProt P01854)
# protocol notes: BIAcore, antibody captured by anti-human IgG, IgE SE44 as analyte
measured property: kon (M⁻¹ s⁻¹)
Kindly provide the numeric value in M⁻¹ s⁻¹ only, without the unit symbol.

[[record]]
binder = "reshaped human C21 antibody C21-Hay3/L1 (antibody, V domains shown) VH: QVQLVQSGAEVKKPGASVKVSCKASGYTFSMYWLEWVRQAPGQRLEWMGEISPGTFTTNYNEKFKARATFTADTSASTAYMELSSLRSEDTAVYYCARFSHFSGSNYDYFDYWGQGTLVTVSS VL: DILLTQSPGTLSLSPGERATLSCRASQSIGTNIHWYQQKPGQAPRLLIKYASESISGIPSRFSGSGSGTDFTLTISRLEPEDFAMYY"
measured = 250000

[[record]]
binder = "reshaped human C21 antibody C21-H3/L3 (antibody, V domains shown) VH: QVQLVQSGAEVKKPGASVKVSCKASGYTFSMYWLEWVRQAPGHGLEWVGEISPGTFTTNYNEKFKARATFTADTSTNTAYMELSSLRSEDTAVYYCARFSHFSG VL: EIVLTQSPGTLSLSPGERATLSCRASQSIGTNIHWYQQKPGQAPRLLIKYASESISGIPSRFSGSGSGTDFTLTISRLEPEDFAMYYCQQSDSWPTTFGQGTKVEIK"
measured = 260000

[[record]]
binder = "reshaped human C21 antibody C21-H1/L2 (antibody, V domains shown) VH: QVQLVQSGAEVKKPGASVKVSCKASGYTFSMYWLEWVKQRPGHGLEWVGEISPGTFTTNYNEKFKAKATFTADTSTNTAYMELSSLTSEDTAVYYCARFSHFSG VL: DILLTQSPGTLSLSPGERATLSCRASQSIGTNIHWYQQKPGQAPRLLIKYASESISGIPDRFSGSGSGTDFTLTISRLEPEDFAMYYCQQSDSWPTTFGQGTKVEIK"
measured = 280000

[[record]]
binder = "reshaped human C21 antibody C21-Hay3/L2 (antibody, V domains shown) VH: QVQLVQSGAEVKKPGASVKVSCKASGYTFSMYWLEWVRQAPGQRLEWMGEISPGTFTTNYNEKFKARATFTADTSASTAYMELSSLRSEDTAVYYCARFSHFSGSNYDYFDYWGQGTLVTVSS VL: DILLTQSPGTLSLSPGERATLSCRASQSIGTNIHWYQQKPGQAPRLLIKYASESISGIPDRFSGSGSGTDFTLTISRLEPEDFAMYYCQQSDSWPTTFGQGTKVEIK"
measured = 250000


(Q) Quick one: kon for reshaped human C21 antibody C21-H3/L2 (antibody, V domains shown) VH: QVQLVQSGAEVKKPGASVKVSCKASGYTFSMYWLEWVRQAPGHGLEWVGEISPGTFTTNYNEKFKARATFTADTSTNTAYMELSSLRSEDTAVYYCARFSHFSG VL: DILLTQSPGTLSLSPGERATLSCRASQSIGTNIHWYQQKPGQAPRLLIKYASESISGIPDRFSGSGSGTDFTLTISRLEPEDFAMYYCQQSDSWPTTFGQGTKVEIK ?
(A) 250000

(Q) Quick one: kon for reshaped human C21 antibody C21-H1/L3 (antibody, V domains shown) VH: QVQLVQSGAEVKKPGASVKVSCKASGYTFSMYWLEWVKQRPGHGLEWVGEISPGTFTTNYNEKFKAKATFTADTSTNTAYMELSSLTSEDTAVYYCARFSHFSG VL: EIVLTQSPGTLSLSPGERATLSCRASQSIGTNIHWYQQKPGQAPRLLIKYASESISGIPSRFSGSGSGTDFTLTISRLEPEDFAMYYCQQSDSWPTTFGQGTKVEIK ?
(A) 290000
